Below, each of the sequences is paired with its reported protein stability index value.
Run description: protein stability index of a GFP-peptide fusion (yeast GPS) (PSI 1-4); higher = more stable; sorted into four equal gates, so the index is relative within each strain
Condition label: doa10∆

>  <Construct sequence>
LVTPKSFLFDVLKTLEY [NUT1]

>  <protein stability index>
2.91

$$$$
>  <Construct sequence>
LKGRVVEVCLADLQGSE [RPS1A]

>  <protein stability index>
2.65

$$$$
>  <Construct sequence>
CVKLTVRSLLEVVQTGA [PRE6]

>  <protein stability index>
2.44

$$$$
>  <Construct sequence>
VLSQFERSYPSEFANQN [ROX3]

>  <protein stability index>
2.26

$$$$
>  <Construct sequence>
ASAGSKEGASTNWDDHA [YMR153W/NUP53]

>  <protein stability index>
3.26

$$$$

---

Run description: protein stability index of a GFP-peptide fusion (yeast GPS) (PSI 1-4); higher = more stable; sorted into four equal gates, so the index is relative within each strain
Condition label: ubr1∆
Below, each of the sequences is paired with its reported protein stability index value.

>  <Construct sequence>
PAELDLRGSLLSRKPSD [RPC82]

>  <protein stability index>
3.19

$$$$
>  <Construct sequence>
LHGNAKKAAEEAGVTDV [FAS2]

>  <protein stability index>
3.34

$$$$
>  <Construct sequence>
SSLVRSCGEEEFFSTNW [REC8]

>  <protein stability index>
3.18

$$$$
>  <Construct sequence>
SGTSSDPDTKKVKESPA [YIL149C/MLP2]

>  <protein stability index>
3.23

$$$$
>  <Construct sequence>
FASNKKINDESSIDKKS [YML103C/NUP188]

>  <protein stability index>
3.14

$$$$
>  <Construct sequence>
HIPRLIPKQLLDDEKIF [YJL039C/NUP192]

>  <protein stability index>
1.31

$$$$
>  <Construct sequence>
NIKKKDTKDALSTRELA [RPC53]

>  <protein stability index>
2.7

$$$$
>  <Construct sequence>
DITVHGEQIIVHPVNER [RRP45]

>  <protein stability index>
1.9

$$$$
>  <Construct sequence>
KFHSELQYLDKHIKNLE [RPN12]

>  <protein stability index>
3.15

$$$$
>  <Construct sequence>
GSKQADRMAKYLHIRDK [PGD1]

>  <protein stability index>
3.14

$$$$
>  <Construct sequence>
KKVASANATAAESDVAK [RPL16A]

>  <protein stability index>
3.02

$$$$
>  <Construct sequence>
GCLNFVDENDEVLLAGF [RPS23A]

>  <protein stability index>
1.27

$$$$
>  <Construct sequence>
LGRVRNHFIFNVESAGA [RPC40]

>  <protein stability index>
1.27

$$$$

---

Run description: protein stability index of a GFP-peptide fusion (yeast GPS) (PSI 1-4); higher = more stable; sorted into four equal gates, so the index is relative within each strain
Condition label: pdr5∆

>  <Construct sequence>
SNDERIVKRLYEYGAVS [BRR2]

>  <protein stability index>
2.97

$$$$
>  <Construct sequence>
NKVCRIEAASTTQDQCK [RPB8]

>  <protein stability index>
2.89

$$$$
>  <Construct sequence>
IKNVQDLLILTRSIKEK [SRB6]

>  <protein stability index>
1.31

$$$$
>  <Construct sequence>
EARLPSQVVWIRRLRVL [RPL19A]

>  <protein stability index>
1.63

$$$$
>  <Construct sequence>
DVFNLLPNLGTPDDDEI [RPN8]

>  <protein stability index>
2.02

$$$$
>  <Construct sequence>
SKTSENKVSNTVSPTQD [SIR2]

>  <protein stability index>
3.12

$$$$
>  <Construct sequence>
VPLTKRYQHLEKITQIS [PCI8]

>  <protein stability index>
2.22

$$$$
>  <Construct sequence>
SENRDKFLQEFINLLLN [IRR1]

>  <protein stability index>
2.07

$$$$
>  <Construct sequence>
FEEDEKNSDVWFLDHNY [RPN8]

>  <protein stability index>
1.73

$$$$
>  <Construct sequence>
VSLQNFSSSVSLSYMAF [RRP40]

>  <protein stability index>
1.64

$$$$
>  <Construct sequence>
SSNQSAPVETKKKRFEI [HRT1]

>  <protein stability index>
3.3

$$$$
>  <Construct sequence>
EEEDSILSLEQSSRVVS [YCS4]

>  <protein stability index>
3.24

$$$$
